B1: PLD5 (parent)
chain: WIVDKQHVYIGSAGLDWQSLGQMK

Variants of: B1
assay.comment: protein stability index of a GFP-peptide fusion (GPS, HEK-293T) (PSI 1-6); higher = more stable;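 also: lentivirally expressed fusions sorted by FACS into six bins by GFP to DsRed ratio, PSI derived from sequencing read proportions per bin multiplied by bin number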
run.conditions: c terminus: a fixed tail appended
Reported protein stability index values are given for each entry in this list.
parameter.measured: protein stability index

| variant.string | observed.result |
| --- | --- |
| A13G | 2.05 |
| V8N | 2.01 |
| Q22D | 1.97 |
| Y9S | 2.01 |

All values here come from the supplement of paper PMC10567573.
